B1: glmS ribozyme (parent)
chain: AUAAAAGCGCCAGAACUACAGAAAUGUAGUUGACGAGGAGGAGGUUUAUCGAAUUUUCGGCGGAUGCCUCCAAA

Variants of: B1
protocolNotes: self-cleavage kobs at 640 uM GlcN6P; higher = faster cleavage; RNA array
setupConditions: with glucosamine-6-phosphate
This sample holds only a part of the variants without activity.
Exercise: state measured self-cleavage kobs at 640 uM GlcN6P for each of the variants provided.

Enquiry: Identify the reported self-cleavage kobs at 640 uM GlcN6P for the following entry. A15G G35A G44U C50G G59C G60C
Return: < 1e-05 s⁻¹

Enquiry: Identify measured self-cleavage kobs at 640 uM GlcN6P associated with G51C A64U
Return: < 1e-05 s⁻¹

Enquiry: Answer with the recorded self-cleavage kobs at 640 uM GlcN6P for the variant listed here: A15G G35C A42U C50G C68A C71U
Return: < 1e-05 s⁻¹

Enquiry: Identify self-cleavage kobs at 640 uM GlcN6P associated with the variant C8A A64U
Return: < 1e-05 s⁻¹

Enquiry: Answer with reported self-cleavage kobs at 640 uM GlcN6P of A12U G32A A33U
Return: < 1e-05 s⁻¹

Enquiry: Indicate the recorded self-cleavage kobs at 640 uM GlcN6P value for this variant: U47A A48U C58G
Return: < 1e-05 s⁻¹

Enquiry: For the variant A15U A39G C71G , report self-cleavage kobs at 640 uM GlcN6P.
Return: 0.000116 s⁻¹

Enquiry: Quote self-cleavage kobs at 640 uM GlcN6P reported for A6C C16U G60U please.
Return: < 1e-05 s⁻¹

Enquiry: Please look at this variant and report its self-cleavage kobs at 640 uM GlcN6P: A6G A39C G63U A64U C67G
Return: < 1e-05 s⁻¹

Enquiry: Complete the entry with self-cleavage kobs at 640 uM GlcN6P for C16G U54G
Return: 0.00211 s⁻¹

Enquiry: Report measured self-cleavage kobs at 640 uM GlcN6P; entry is G51U U57C
Return: < 1e-05 s⁻¹

Enquiry: Answer with reported self-cleavage kobs at 640 uM GlcN6P of U45C C50G
Return: < 1e-05 s⁻¹

Enquiry: Specify self-cleavage kobs at 640 uM GlcN6P for G9U A33U and stop.
Return: < 1e-05 s⁻¹

Enquiry: Please indicate self-cleavage kobs at 640 uM GlcN6P recorded for G13A A64C
Return: < 1e-05 s⁻¹

Enquiry: Tell me measured self-cleavage kobs at 640 uM GlcN6P for A6C G13C G51U please.
Return: < 1e-05 s⁻¹

Enquiry: Provide only the value of recorded self-cleavage kobs at 640 uM GlcN6P for C34G U45A
Return: < 1e-05 s⁻¹

Enquiry: Supply recorded self-cleavage kobs at 640 uM GlcN6P for G35A U56G here.
Return: < 1e-05 s⁻¹

Enquiry: Provide only the value of recorded self-cleavage kobs at 640 uM GlcN6P for A12U G29A A52U
Return: 4.42e-05 s⁻¹

Enquiry: Please give measured self-cleavage kobs at 640 uM GlcN6P of the following entry: G32C A48U A64C
Return: < 1e-05 s⁻¹

Enquiry: Report self-cleavage kobs at 640 uM GlcN6P, nothing else, for this variant: A15C G32U
Return: 0.000107 s⁻¹

Enquiry: Note self-cleavage kobs at 640 uM GlcN6P for the variant shown: C11U A52C
Return: < 1e-05 s⁻¹

Enquiry: Please indicate self-cleavage kobs at 640 uM GlcN6P recorded for G43U C68U
Return: 0.00188 s⁻¹

Enquiry: Please give the documented self-cleavage kobs at 640 uM GlcN6P of C50G C61U C71U
Return: 0.000232 s⁻¹

Enquiry: Item G41A U46G : provide self-cleavage kobs at 640 uM GlcN6P
Return: 0.000206 s⁻¹

Enquiry: Identify measured self-cleavage kobs at 640 uM GlcN6P associated with A6G A33U
Return: < 1e-05 s⁻¹

Enquiry: Output self-cleavage kobs at 640 uM GlcN6P of A14U G66A
Return: 0.00104 s⁻¹

Enquiry: Find the measured self-cleavage kobs at 640 uM GlcN6P of A6G A14C C34U and report it.
Return: < 1e-05 s⁻¹

Enquiry: Input G41C G66A , output reported self-cleavage kobs at 640 uM GlcN6P.
Return: 0.00013 s⁻¹

Enquiry: Retrieve self-cleavage kobs at 640 uM GlcN6P measured for A14G G29A A39G A42G G43U G62C and print it.
Return: < 1e-05 s⁻¹

Enquiry: Give a short answer stating reported self-cleavage kobs at 640 uM GlcN6P for A64G C70U .
Return: 0.000786 s⁻¹

Enquiry: Provide one value: measured self-cleavage kobs at 640 uM GlcN6P of U57A
Return: 6.91e-05 s⁻¹

Enquiry: Give the reported self-cleavage kobs at 640 uM GlcN6P for this variant. A42U C68U
Return: 0.000108 s⁻¹

Enquiry: Quick one: give measured self-cleavage kobs at 640 uM GlcN6P for G35U U46C
Return: < 1e-05 s⁻¹

Enquiry: Recall and state the measured self-cleavage kobs at 640 uM GlcN6P for G43U C50U .
Return: < 1e-05 s⁻¹

Enquiry: Query self-cleavage kobs at 640 uM GlcN6P for A12G G26U G38A C68G C71A
Return: 0.000109 s⁻¹

Enquiry: Give a short answer stating reported self-cleavage kobs at 640 uM GlcN6P for A36C U56A .
Return: < 1e-05 s⁻¹

Enquiry: Specify self-cleavage kobs at 640 uM GlcN6P for U2C G9U U56A C71U and stop.
Return: < 1e-05 s⁻¹

Enquiry: Note down self-cleavage kobs at 640 uM GlcN6P recorded for U46G C58A A64U
Return: < 1e-05 s⁻¹

Enquiry: Query self-cleavage kobs at 640 uM GlcN6P for U31G G32C
Return: 6.65e-05 s⁻¹

Enquiry: Answer with the recorded self-cleavage kobs at 640 uM GlcN6P of U46G U54G only.
Return: 0.00224 s⁻¹

Enquiry: Tell me measured self-cleavage kobs at 640 uM GlcN6P for A6U G35C A64C please.
Return: < 1e-05 s⁻¹

Enquiry: Determine its reported self-cleavage kobs at 640 uM GlcN6P: U30A G37C A53U
Return: < 1e-05 s⁻¹
